Source of measurements: the supplement of paper PMC10567573

B1: ZNF511 (parent)
chain: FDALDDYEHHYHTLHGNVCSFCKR

Variants of: B1
assay notes: protein stability index of a GFP-peptide fusion (GPS, HEK-293T) (PSI 1-6); higher = more stable;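 note: lentivirally expressed fusions sorted by FACS into six bins by GFP to DsRed ratio, PSI derived from sequencing read proportions per bin multiplied by bin number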
reported conditions: c terminus: a fixed tail appended
# if value of protein stability index reaches 3, tag true (1); if it stays below, tag false (0)

construct sequence | class label
FDALDDYERHYHTLHGNVCSFCKR [H9R] | true (1)
FDCLDDYEHHYHTLHGNVCSFCKR [A3C] | true (1)
FDAADDYEHHYHTLHGNVCSFCKR [L4A] | true (1)
FDALADYEHHYHTLHGNVCSFCKR [D5A] | true (1)
FDELDDYEHHYHTLHGNVCSFCKR [A3E] | true (1)
FDALDDYEHHYHTLHGNVGSFCKR [C19G] | false (0)
FDALDDYEHHYHTLHGNCCSFCKR [V18C] | true (1)
FDALDDYEHHFHTLHGNVCSFCKR [Y11F] | true (1)
FDALDDYEHVYHTLHGNVCSFCKR [H10V] | false (0)
FDALDDYFHHYHTLHGNVCSFCKR [E8F] | false (0)
FDALDDYEHHYHTLHGNVCSFWKR [C22W] | false (0)
FDALHDYEHHYHTLHGNVCSFCKR [D5H] | true (1)
FDALDDYEHHYHTLHGNRCSFCKR [V18R] | true (1)
FDALDDYEHHYHTLHGNVCSFCKV [R24V] | true (1)
FDALDAYEHHYHTLHGNVCSFCKR [D6A] | true (1)
FDALDDYEAHYHTLHGNVCSFCKR [H9A] | true (1)
FDALDDYEHHVHTLHGNVCSFCKR [Y11V] | true (1)
FDALDDYEHHYHTLHGNVCSFCQR [K23Q] | true (1)
FDALDDYEHHYHTLHGNVCSFCKY [R24Y] | false (0)
FDALDDYEHHYNTLHGNVCSFCKR [H12N] | true (1)
FDALDDYEHHDHTLHGNVCSFCKR [Y11D] | true (1)
FDALDDYEHLYHTLHGNVCSFCKR [H10L] | false (0)
FDALDDYEHPYHTLHGNVCSFCKR [H10P] | false (0)
FDALDDPEHHYHTLHGNVCSFCKR [Y7P] | true (1)
FDAGDDYEHHYHTLHGNVCSFCKR [L4G] | true (1)
FDALDDYEHHYLTLHGNVCSFCKR [H12L] | false (0)
FDALDDYELHYHTLHGNVCSFCKR [H9L] | false (0)
FDALDDYEHHYQTLHGNVCSFCKR [H12Q] | true (1)
FDALDDYEHHYHTLCGNVCSFCKR [H15C] | true (1)
FDALDDYEHHYHTLHGNVCSFCKT [R24T] | true (1)
FDALDDYEHHYHTLHGNVCSECKR [F21E] | true (1)
FDALDDYEHHYHTLHGNVCNFCKR [S20N] | true (1)
FDALDDYEHHYHTLHGDVCSFCKR [N17D] | true (1)
FSALDDYEHHYHTLHGNVCSFCKR [D2S] | true (1)
FDALLDYEHHYHTLHGNVCSFCKR [D5L] | true (1)
FDALDDYEHHYHTLHGNVCSFCMR [K23M] | true (1)
FDALDDYEHHYHTLHGNVCSFCKN [R24N] | true (1)
FDALDDYEHHYHTLHGNVCWFCKR [S20W] | false (0)
FDAPDDYEHHYHTLHGNVCSFCKR [L4P] | true (1)
FDALDDYEHHYHTLHGNVCSFCKD [R24D] | true (1)
FYALDDYEHHYHTLHGNVCSFCKR [D2Y] | true (1)
FDALDEYEHHYHTLHGNVCSFCKR [D6E] | true (1)
FDALDDDEHHYHTLHGNVCSFCKR [Y7D] | true (1)
FDALDDSEHHYHTLHGNVCSFCKR [Y7S] | true (1)
FDALDDWEHHYHTLHGNVCSFCKR [Y7W] | true (1)
FDALDDYEHHYHTRHGNVCSFCKR [L14R] | true (1)
FDALDDYEHHYHTLHGNVCSFCDR [K23D] | true (1)
FDALDDYEHHYHTLHGNVCSFCKK [R24K] | true (1)
FDALEDYEHHYHTLHGNVCSFCKR [D5E] | true (1)
FDALDCYEHHYHTLHGNVCSFCKR [D6C] | true (1)
FDALDDYEHHYHTLHGNVCGFCKR [S20G] | false (0)
FDALDDYEHHYHTLIGNVCSFCKR [H15I] | true (1)
FDAQDDYEHHYHTLHGNVCSFCKR [L4Q] | true (1)
FDALMDYEHHYHTLHGNVCSFCKR [D5M] | true (1)
FDALDDYEHHYHTLHANVCSFCKR [G16A] | true (1)
FDALDIYEHHYHTLHGNVCSFCKR [D6I] | true (1)
FDALDDYEHHYHTLHGNVCSFCKE [R24E] | true (1)
FDALDDYEHHYHTLHGNDCSFCKR [V18D] | true (1)
